Data origin: ChEMBL document CHEMBL3885881

- Organism: Rattus norvegicus
- Type: toxicity, organism-based, Sprague-Dawley
- conditions: in vivo, po, 120 mg/kg, 24 h, tissue Blood, route oral GAVAGE, dose level High, time 1 day, vehicle 100 % WATER
- Description: DrugMatrix - Regimen: Single
measure: ABSOLUTE EOSINOPHIL (cells/µL)

INSERT INTO results (molecule, quantity_unit, value) VALUES
  ('COCCc1ccc(OCC(O)CNC(C)C)cc1 (stereo unspecified) [METOPROLOL]', 'cells/µL', 90);

* * *

Recorded ABSOLUTE EOSINOPHIL for the following compounds
- Species on record: Rattus norvegicus
- procedure text: DrugMatrix - Regimen: Daily Repeat
- Assay type: toxicity, organism-based, Sprague-Dawley
- Design: regimen Daily Repeat, gender Male, age 6-8 weeks
- conditions: in vivo, po, 0 mg/kg, 72 h, tissue Blood, route oral GAVAGE, dose level Control, time 3 day, vehicle .5 % CMC
measure: ABSOLUTE EOSINOPHIL (CELLS/uL)

INSERT INTO assay_data (compound, value) VALUES
  ('COc1nc(C)nc(Cl)c1N=C1NCCN1', 47.67),
  ('CCn1cc(C(=O)O)c(=O)c2cc(F)c(N3CCNCC3)cc21', 0),
  ('CN1CCN(CCCN2c3ccccc3Sc3ccc(Cl)cc32)CC1', 0),
  ('CCCN1C[C@H](CSC)C[C@@H]2c3cccc4[nH]cc(c34)C[C@H]21 [PERGOLIDE]', 284.5),
  ('ClC(Cl)Br', 279.83),
  ('Cc1ccc(/N=C/N(C)/C=N/c2ccc(C)cc2C)c(C)c1', 0),
  ('CC(C)(C)NC(=O)[C@@H]1C[C@@H]2CCCC[C@@H]2CN1C[C@@H](O)[C@H](Cc1ccccc1)NC(=O)[C@H](CC(N)=O)NC(=O)c1ccc2ccccc2n1', 222.83),
  ('ClC(Br)Br', 279.83);

* * *

- Organism: Rattus norvegicus
- procedure text: DrugMatrix - Regimen: Daily Repeat
- Format: toxicity, organism-based, Sprague-Dawley
- Design: regimen Daily Repeat, gender Male, age 6-8 weeks
- conditions: in vivo, po, 0 mg/kg, 72 h, tissue Plasma, route oral GAVAGE, dose level Control, time 3 day, vehicle .5 % CMC
measure: ASPARTATE AMINOTRANSFERASE (u/L)

INSERT INTO assay_data (compound, quantity_unit, value) VALUES
  ('CCCCc1oc2ccccc2c1C(=O)c1cc(I)c(OCCN(CC)CC)c(I)c1', 'u/L', 69.83),
  ('CCn1cc(C(=O)O)c(=O)c2cc(F)c(N3CCNCC3)cc21', 'u/L', 82.17),
  ('CCCN1C[C@H](CSC)C[C@@H]2c3cccc4[nH]cc(c34)C[C@H]21 [PERGOLIDE]', 'u/L', 84.83),
  ('ClC(Cl)Br', 'u/L', 96),
  ('Cc1ccc2cc3c(ccc4ccccc43)c3c2c1CC3', 'u/L', 71.67),
  ('CC1CC(OC(=O)C(O)c2ccccc2)CC(C)(C)C1 (stereo not given) [CYCLANDELATE]', 'u/L', 63.17),
  ('Nc1ccn([C@H]2CC[C@@H](CO)O2)c(=O)n1', 'u/L', 86.33),
  ('NC1=NC(=O)C(c2ccccc2)O1 (stereo not given)', 'u/L', 66.17),
  ('Cc1nc2n(c(=O)c1CCN1CCC(c3noc4cc(F)ccc34)CC1)CCCC2', 'u/L', 69.83),
  ('C1CCC(C(CC2CCCCN2)C2CCCCC2)CC1 (stereo not given)', 'u/L', 78.33);

* * *

- Organism: Rattus norvegicus
- procedure text: DrugMatrix - Regimen: Daily Repeat
- Assay type: toxicity, organism-based, Sprague-Dawley
- Set-up: regimen Daily Repeat, gender Male, age 6-8 weeks
- conditions: in vivo, po, 0 mg/kg, 120 h, tissue Plasma, route oral GAVAGE, dose level Control, time 5 day, vehicle 100 % WATER
measure: PHOSPHORUS (mg/dL)

INSERT INTO results (compound, quantity_unit, value) VALUES
  ('C[C@](N)(Cc1ccc(O)c(O)c1)C(=O)O [METHYLDOPA]', 'mg/dL', 11.72),
  ('N[C@@H](Cc1ccc(O)c(O)c1)C(=O)O [LEVODOPA]', 'mg/dL', 10.38),
  ('c1ccc([C@H]2CN3CCSC3=N2)cc1 [LEVAMISOLE]', 'mg/dL', 11.25),
  ('Cc1onc(-c2ccccc2Cl)c1C(=O)N[C@@H]1C(=O)N2[C@@H]1SC(C)(C)[C@@H]2C(=O)O [CLOXACILLIN]', 'mg/dL', 11.67),
  ('Cn1cc[nH]c1=S [METHIMAZOLE]', 'mg/dL', 10.73);

* * *

Items are presented alongside their recorded TOTAL BILIRUBIN.
- Species: Rattus norvegicus
- procedure text: DrugMatrix - Regimen: Daily Repeat
- Assay type: toxicity, organism-based, Sprague-Dawley
- Set-up: regimen Daily Repeat, gender Male, age 6-8 weeks
- conditions: in vivo, iv, 0 mg/kg, 72 h, tissue Plasma, dose level Control, time 3 day, vehicle 100 % SALINE
Starred links: 1 amine or outer side, 2 acyl side, 3 side chain; linkers in the order of their positions; H or OH if unused. Positions of bridges follow the written chain, without caps; N, C: chain ends. Non-standard residues stand in square brackets, D forms with d. Residues, ends and D or L forms follow the SMILES beside them. Chains are numbered I, II in the order given. Actinocin(9to1) = Cc1c2oc3c(C)ccc(C(=O)[*:1])c3nc-2c(C(=O)[*:2])c(N)c1=O; NMeV = CN[C@H](C(=O)O)C(C)C; Sar = CNCC(=O)O
measure: TOTAL BILIRUBIN (mg/dL)

INSERT INTO assay_data (molecule, measure, value) VALUES
  ('Cc1c2oc3c(C)ccc(C(=O)N[C@@H]4C(=O)N[C@H](C(C)C)C(=O)N5CCC[C@H]5C(=O)N(C)CC(=O)N(C)[C@@H](C(C)C)C(=O)O[C@@H]4C)c3nc-2c(C(=O)N[C@@H]2C(=O)N[C@H](C(C)C)C(=O)N3CCC[C@H]3C(=O)N(C)CC(=O)N(C)[C@@H](C(C)C)C(=O)O[C@@H]2C)c(N)c1=O [DACTINOMYCIN] (I: T[dV]P[Sar][NMeV] / II: T[dV]P[Sar][NMeV]; ester I:1-I:C, II:1-II:C; linker I:N-II:N via Actinocin(9to1))', 'TOTAL BILIRUBIN', 0.18),
  ('COc1cc2c3cc1Oc1cc(ccc1O)C[C@@H]1c4c(cc(OC)c(O)c4Oc4ccc(cc4)C[C@@H]3N(C)CC2)CC[N+]1(C)C.[Cl-]', 'TOTAL BILIRUBIN', 0.17),
  ('Cc1ccc(N(CC2=NCCN2)c2cccc(O)c2)cc1', 'TOTAL BILIRUBIN', 0.22),
  ('CC[C@]1(O)C[C@H]2CN(CCc3c([nH]c4ccccc34)[C@@](C(=O)OC)(c3cc4c(cc3OC)N(C=O)[C@H]3[C@@](O)(C(=O)OC)[C@H](OC(C)=O)[C@]5(CC)C=CCN6CC[C@]43[C@@H]65)C2)C1', 'TOTAL BILIRUBIN', 0.2);

* * *

- Species on record: Rattus norvegicus
- Assay type: toxicity, organism-based, Sprague-Dawley
- conditions: in vivo, po, 2000 mg/kg, 24 h, tissue Blood, route oral GAVAGE, dose level High, time 1 day, vehicle 100 % WATER
measure: ABSOLUTE EOSINOPHIL (cells/µL)

INSERT INTO results (molecule, quantity_unit, value) VALUES
  ('CCOC(=O)N1CCC(=C2c3ccc(Cl)cc3CCc3cccnc32)CC1', 'cells/µL', 56.7);

* * *

- Species: Rattus norvegicus
- procedure text: DrugMatrix - Regimen: Daily Repeat
- Type: toxicity, organism-based, Sprague-Dawley
- Design: regimen Daily Repeat, gender Male, age 6-8 weeks
- conditions: in vivo, iv, 0 mg/kg, 120 h, tissue Blood, dose level Control, time 5 day, vehicle 100 % SALINE
Starred links: 1 amine or outer side, 2 acyl side, 3 side chain; linkers in the order of their positions; H or OH if unused. Positions of bridges follow the written chain, without caps; N, C: chain ends. Non-standard residues stand in square brackets, D forms with d. Residues, ends and D or L forms follow the SMILES beside them. Chains are numbered I, II in the order given. Actinocin(9to1) = Cc1c2oc3c(C)ccc(C(=O)[*:1])c3nc-2c(C(=O)[*:2])c(N)c1=O; NMeV = CN[C@H](C(=O)O)C(C)C; Sar = CNCC(=O)O
# ERYTHROCYTE COUNT per entry
measure: ERYTHROCYTE COUNT (x10E6/uL)

INSERT INTO assay_data (compound, measure, quantity_unit, value) VALUES
  ('Cc1ccc(N(CC2=NCCN2)c2cccc(O)c2)cc1 [PHENTOLAMINE]', 'ERYTHROCYTE COUNT', 'x10E6/uL', 5.9),
  ('CC[C@]1(O)C[C@H]2CN(CCc3c([nH]c4ccccc34)[C@@](C(=O)OC)(c3cc4c(cc3OC)N(C=O)[C@H]3[C@@](O)(C(=O)OC)[C@H](OC(C)=O)[C@]5(CC)C=CCN6CC[C@]43[C@@H]65)C2)C1 [VINCRISTINE]', 'ERYTHROCYTE COUNT', 'x10E6/uL', 5.44),
  ('COc1cc2c3cc1Oc1cc(ccc1O)C[C@@H]1c4c(cc(OC)c(O)c4Oc4ccc(cc4)C[C@@H]3N(C)CC2)CC[N+]1(C)C.[Cl-]', 'ERYTHROCYTE COUNT', 'x10E6/uL', 5.52),
  ('Cc1c2oc3c(C)ccc(C(=O)N[C@@H]4C(=O)N[C@H](C(C)C)C(=O)N5CCC[C@H]5C(=O)N(C)CC(=O)N(C)[C@@H](C(C)C)C(=O)O[C@@H]4C)c3nc-2c(C(=O)N[C@@H]2C(=O)N[C@H](C(C)C)C(=O)N3CCC[C@H]3C(=O)N(C)CC(=O)N(C)[C@@H](C(C)C)C(=O)O[C@@H]2C)c(N)c1=O [DACTINOMYCIN] (I: T[dV]P[Sar][NMeV] / II: T[dV]P[Sar][NMeV]; ester I:1-I:C, II:1-II:C; linker I:N-II:N via Actinocin(9to1))', 'ERYTHROCYTE COUNT', 'x10E6/uL', 5.61);
